- TEST DESCRIPTION: Measurement of Compound Metabolic Stability in hepatocytes
READOUT NAME: half-life at 1 μM

Q: Give its half-life at 1 μM value. Item: Cc1nc2c(F)cc(-c3nc(Nc4ccc(CN5CCO[C@@](C)(C[C@H](C)N(C)C)C5)cn4)ncc3F)cc2n1C(C)C [Compound A23]
Ans: 1.27 h

Q: Same lookup for Cc1nc2c(F)cc(-c3nc(Nc4ccc(CN5CCO[C@](C)(CCN(C)C)C5)cn4)ncc3F)cc2n1C(C)C [Compound A2] , please.
Ans: 1.31 h

Q: Same lookup for Cc1nc2c(F)cc(-c3nc(Nc4ccc(CN5CCO[C@](C)(CCN6CCOCC6)C5)cn4)ncc3F)cc2n1C(C)C [Compound A19] , please.
Ans: 0.28 h

Q: Same lookup for COC1(C)CN(CC[C@]2(C)CN(Cc3ccc(Nc4ncc(F)c(-c5cc(F)c6nc(C)n(C(C)C)c6c5)n4)nc3)CCO2)C1 [Compound A18] , please.
Ans: 1.13 h

* * *

IC50 at 10 min listing for selected compounds.
- System: CYP isozymes (IC50s averaged over the isozymes)
- TEST DESCRIPTION: CYP Enzymatic Inhibition Assay in human liver microsomes
Field: numeric (µM). Do not append units.

Answered examples (6):
Cc1nc2c(F)cc(-c3nc(Nc4ccc(CN5CCO[C@](C)(CCNCC(F)F)C5)cn4)ncc3F)cc2n1C(C)C [Compound A6] :: 14.6
Cc1nc2c(F)cc(-c3nc(Nc4ccc(CN5CCO[C@](C)(CCN(C)C)C5)cn4)ncc3F)cc2n1C(C)C [Compound A2] :: 40.2
Cc1nc2c(F)cc(-c3nc(Nc4ccc(CN5CCO[C@](C)(CCN6CC[C@@H](F)C6)C5)cn4)ncc3F)cc2n1C(C)C [Compound A15] :: 17.1
Cc1nc2c(F)cc(-c3nc(Nc4ccc(CN5CCO[C@@](C)(CCN(C)C)C5)cn4)ncc3F)cc2n1C(C)C [Compound A1] :: 38
Cc1nc2c(F)cc(-c3nc(Nc4ccc(CN5CCO[C@]6(CCN(C)C6)C5)cn4)ncc3F)cc2n1C(C)C [Compound A38] :: 80.2
Cc1nc2c(F)cc(-c3nc(Nc4ccc(CN5CCO[C@](C)(CCN6CCCC6)C5)cn4)ncc3F)cc2n1C(C)C [Compound A16] :: 47.9

Next item in the queue.
Q: Give its IC50 at 10 min value. Item: Cc1nc2c(F)cc(-c3nc(Nc4ccc(CN5CCNC(C)(C)C5)cn4)ncc3F)cc2n1C(C)C [Compound A44]
Ans: 64.2

* * *

- System: drug-sensitive cell lines of Table 2 (EFM-19, MDA-MB-453, T-47D, ZR-75-1, NCI-H441, OVTOKO, NCI-H1838)
- TEST DESCRIPTION: Cell Line Growth Retardation Assay, sensitive cohort
- Assay type: cell-based, human
- EXPERIMENTAL PARAMETERS: Homo sapiens, […], geometric mean over sensitive cohort; 6 days growth; read-out: AvgSensIC50
READOUT NAME: pIC50
Scale note: pIC50 = -log10(concentration in M).

Answered examples (10):
Cc1nc2c(F)cc(-c3nc(Nc4ccc(CN5CC6(C5)CC(F)(F)C6)cn4)ncc3F)cc2n1C(C)C :: 6.82
Cc1nc2c(F)cc(-c3nc(Nc4ccc(CN5CC6(CCC6)C5)cn4)ncc3F)cc2n1C(C)C :: 7.00
CNC(=O)C[C@]1(C)CN(Cc2ccc(Nc3ncc(F)c(-c4cc(F)c5nc(C)n(C(C)C)c5c4)n3)nc2)CCO1 :: 6.68
Cc1nc2c(F)cc(-c3nc(Nc4ccc(CN5CCO[C@@]6(CCN(S(C)(=O)=O)C6)C5)cn4)ncc3F)cc2n1C(C)C :: 6.85
Cc1nc2c(F)cc(-c3nc(Nc4ccc(CN5CCO[C@@](C)(C[C@@H](C)N(C)C)C5)cn4)ncc3F)cc2n1C(C)C [Compound A28, methanesulfonate] :: 7.15
Cc1nc2c(F)cc(-c3nc(Nc4ccc(CN5CCO[C@](C)(CC(=O)N(C)C)C5)cn4)ncc3F)cc2n1C(C)C :: 6.68
CC(=O)N(C)CC[C@]1(C)CN(Cc2ccc(Nc3ncc(F)c(-c4cc(F)c5nc(C)n(C(C)C)c5c4)n3)nc2)CCO1 :: 6.77
Cc1nc2c(F)cc(-c3nc(Nc4ccc(CN5CCO[C@](C)(CCNC(C)(C)C)C5)cn4)ncc3F)cc2n1C(C)C :: 6.80
Cc1nc2c(F)cc(-c3nc(Nc4ccc(CN5CCO[C@@](C)(C[C@H](C)O)C5)cn4)ncc3F)cc2n1C(C)C (single isomer, unassigned) :: 6.68
Cc1nc2c(F)cc(-c3nc(Nc4ccc(CN5CCO[C@@](C)(CCN(C)C)C5)cn4)ncc3F)cc2n1C(C)C :: 7.05

Q: Give its pIC50 value. Item: Cc1nc2c(F)cc(-c3nc(Nc4ccc(CN5CCO[C@@]6(CCNC6)C5)cn4)ncc3F)cc2n1C(C)C
Ans: 6.70

Q: Same lookup for CCC[C@@]1(C)CN(Cc2ccc(Nc3ncc(F)c(-c4cc(F)c5nc(C)n(C(C)C)c5c4)n3)nc2)CCN1 , please.
Ans: 7.05

Q: Same lookup for Cc1nc2c(F)cc(-c3nc(Nc4ccc(CN5CCN(C)C(C)(C)C5)cn4)ncc3F)cc2n1C(C)C , please.
Ans: 7.15

Q: Same lookup for Cc1nc2c(F)cc(-c3nc(Nc4ccc(CN5CCO[C@@](C)(CCO)C5)cn4)ncc3F)cc2n1C(C)C , please.
Ans: 7.15

Reference source for all entries: patent US12486280B2
